- Tested on: mice
- test protocol: SmartCube behavioral signature similarity analysis
- Format: in vivo
- protocol conditions: example at 3 mg/kg i.p., rate of 0.70 or lower = similar
discrimination rate vs Risperidone (0.06 mg/kg) values by entry
value type: discrimination rate vs Risperidone (0.06 mg/kg)

smiles data | measured value
Cc1ncc(-c2ccc3c(c2)N(c2cnc4c(c2)C(C)(C)C(=O)N4C)C(=O)C3(C)C)cn1 | 0.57
Cc1ncc(-c2ccc3c(c2)N(c2cncc(N4CCOCC4)n2)C(=O)C3(C)C)cn1 | 0.83
Cc1ncc(-c2ccc3c(c2)N(c2cncc(N4CCOC4=O)n2)C(=O)C3(C)C)cn1 | 0.59
Cc1ncc(-c2ccc3c(c2)N(c2cnc(-n4ccnc4C)cn2)C(=O)C3(C)C)cn1 | 0.63
Cc1ncc(-c2ccc3c(c2)N(c2ccc4c(n2)N(C)C(=O)C4(C)C)C(=O)C3(C)C)cn1 | 0.62
Cc1ncc(-c2ccc3c(c2)N(c2cnc(C)c(N4CCOCC4)n2)C(=O)C3(C)C)cn1 | 0.73
Cc1ncc(-c2ccc3c(c2)N(c2cnc(C)c(N4CCOC4=O)n2)C(=O)C3(C)C)cn1 | 0.57
